- experimental target: recombinant human tau (human, UniProt P10636 1-383)
- Sequence (P10636 other isoform, or with tags, fused parts or gaps): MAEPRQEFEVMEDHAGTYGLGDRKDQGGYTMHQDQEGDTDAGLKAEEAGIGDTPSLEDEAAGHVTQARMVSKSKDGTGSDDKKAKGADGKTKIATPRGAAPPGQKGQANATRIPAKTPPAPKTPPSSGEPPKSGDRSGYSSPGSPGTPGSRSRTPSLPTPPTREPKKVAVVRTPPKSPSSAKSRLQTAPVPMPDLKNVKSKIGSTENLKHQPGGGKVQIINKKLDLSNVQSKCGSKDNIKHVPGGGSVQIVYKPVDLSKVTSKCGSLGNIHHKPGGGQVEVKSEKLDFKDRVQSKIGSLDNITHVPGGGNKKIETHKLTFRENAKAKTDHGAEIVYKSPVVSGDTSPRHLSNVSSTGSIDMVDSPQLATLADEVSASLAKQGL
- test description: SPR
pKd overview
The scale used: pKd is minus the common logarithm of the concentration in molar units.

- hu16G7VHv2b/hu16G7VLv2 (antibody, V domains shown) VH: EVQLVQSGAEVVKPGASVKVSCKASGYTFTSSWIHWVRQRPGQGLEWIGEIYPNSGNTNYNEKFKGRVTLTRDISISTAYMELSRLTSDDTAVYYCARLGWLIPLDYWGQGTTVTVSS VL: DIVLTQSPSSLAVSVGERATISCKSSQSLLDGNDQKNYLAWYQQKPGQSPKLLIYWASTRESGVPDRFSGSGSGTDFTLTISSLQAEDVAVYYCQQFYDYPWTFGGGTKLEIKR: 9.52
- chimeric 16G7 antibody (antibody, V domains shown) VH: QVQLQQPGSVLVRPGASVKLSCKASGYTFTSSWIHWAKQRPGQGLEWIGEIYPNSGNTNYNEKFKGKATLTVDISSSTAYVDLTSLTSEDSAVYYCARLGWLIPLDYWGQGTTLIVSS VL: DIVLSQSPSSLAVSVGEKVTMSCKSSQSLLDGNDQKNYLAWYQQKPGQSPKLLMYWASTRESGVPDRFTGSGSGTDFTLTISSLKAEDLAVYYCQQFYDYPWTFGGGTKLEIKR: 9.73

[in] Query: pKd; subject: hu16G7VHv7/hu16G7VLv2 (antibody, V domains shown) VH: EVQLVQPGAEVKKPGASVKVSCKASGYTFTSSWIHWVRQAPGQGLEWMGEIYPNSGNTNYNEKFKGRVTMTVDISISTAYMELSRLRSDDTAVYYCARLGWLIPLDYWGQGTTVTVSS VL: DIVLTQSPSSLAVSVGERATISCKSSQSLLDGNDQKNYLAWYQQKPGQSPKLLIYWASTRESGVPDRFSGSGSGTDFTLTISSLQAEDVAVYYCQQFYDYPWTFGGGTKLEIKR
[out] 9.53
